- assay.info: in vitro
- Parameters: MDCK permeability
- reported.conditions: dog, MDCK
reported.endpoint: Papp (×10⁻⁶ cm/s)
Just the number in ×10⁻⁶ cm/s, nothing appended.

Entry Nc1ncnc2c1ncn2[C@@H]1O[C@H](/C=C/c2nc3ccccc3s2)[C@@H](O)[C@H]1O : reported Papp = ? 4.9

Need Papp of Nc1ncnc2c1ncn2[C@@H]1O[C@H](CNS(=O)(=O)c2ccc3ccccc3c2)[C@@H](O)[C@H]1O , thanks. 1.2

====

Reported solubility values for a set of compounds
- assay.info: physchem
- Set-up: solubility
Report only the number, with the unit µM understood.

See these solved cases before continuing.
# substance.smiles, value.unit, solubility
measured = [
    ("Nc1ncnn2c([C@@H]3O[C@H](CNS(=O)(=O)c4ccc5ccccc5c4)[C@@H](O)[C@H]3O)ccc12", "µM", 226),
    ("Nc1ncnn2c([C@@H]3O[C@H](/C=C/c4nc5ccccc5s4)[C@@H](O)[C@H]3O)ccc12", "µM", 4.7),
    ("Nc1ncnc2c1ncn2[C@@H]1O[C@H](/C=C/c2nc3ccccc3s2)[C@@H](O)[C@H]1O", "µM", 18.2),
]

# input compound: Nc1ncnc2c1ncn2[C@@H]1O[C@H](CNS(=O)(=O)c2ccc3ccccc3c2)[C@@H](O)[C@H]1O ; wanted: its solubility 213

====

Parameter: pIC50. Scope: all listed entries.
- test.system: HCoV-NL63 nsp14 (Human coronavirus NL63)
- Sequence (P0C6X5 5568-6085): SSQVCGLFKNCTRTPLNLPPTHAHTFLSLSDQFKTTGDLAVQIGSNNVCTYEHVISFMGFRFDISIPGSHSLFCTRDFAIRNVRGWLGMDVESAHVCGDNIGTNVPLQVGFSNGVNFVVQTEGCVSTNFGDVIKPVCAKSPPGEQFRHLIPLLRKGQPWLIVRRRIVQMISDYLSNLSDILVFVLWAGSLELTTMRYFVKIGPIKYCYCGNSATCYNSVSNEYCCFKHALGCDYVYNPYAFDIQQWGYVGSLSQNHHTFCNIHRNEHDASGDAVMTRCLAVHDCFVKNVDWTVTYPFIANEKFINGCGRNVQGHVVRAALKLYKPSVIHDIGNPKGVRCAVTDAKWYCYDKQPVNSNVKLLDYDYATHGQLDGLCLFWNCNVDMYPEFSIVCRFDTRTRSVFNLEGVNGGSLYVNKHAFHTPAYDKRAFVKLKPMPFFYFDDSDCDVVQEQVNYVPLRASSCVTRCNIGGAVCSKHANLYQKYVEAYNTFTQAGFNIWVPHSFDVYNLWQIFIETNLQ
- assay.info: RapidFire MS methyltransferase assay
- Assay type: biochemical
- reported.conditions: read-out: IC50
Notebook: values listed as pIC50 are -log10 of the concentration (mol/L).

These solved cases illustrate the format of a correct answer.
# substance.smiles, pIC50
measured = [
    ("Nc1ncnc2c1ccn2[C@@H]1O[C@H](CSc2nc3ccccc3s2)[C@@H](O)[C@H]1O", 7.41),
    ("Nc1ncnc2c1ncn2[C@@H]1O[C@H](CSc2nc3ccccc3o2)[C@@H](O)[C@H]1O", 6.18),
    ("Nc1ncnc2c1ncn2[C@@H]1O[C@H](/C=C/c2nc3ccccc3s2)[C@@H](O)[C@H]1O", 7.77),
    ("Nc1ncnn2c([C@@H]3O[C@H](/C=C/c4nc5ccccc5s4)[C@@H](O)[C@H]3O)ccc12", 7.89),
    ("Nc1ncnc2c1ncn2[C@@H]1O[C@H](CSc2ccc3cccnc3c2)[C@@H](O)[C@H]1O", 6.77),
]

API: value(readout= pIC50, system= HCoV-NL63 nsp14 (Human coronavirus NL63), query= Nc1ncnn2c([C@@H]3O[C@H](CNS(=O)(=O)c4ccc5ccccc5c4)[C@@H](O)[C@H]3O)ccc12 ) 6.12

# get_value(readout= pIC50, system= HCoV-NL63 nsp14 (Human coronavirus NL63)) for Nc1ncnc2c1ncn2[C@@H]1O[C@H](CSc2nc3ccccc3s2)[C@@H](O)[C@H]1O 6.72

Enter reported pIC50 observed with HCoV-NL63 nsp14 (Human coronavirus NL63) for Nc1ncnn2c([C@@H]3O[C@H](CSc4nc5ccccc5s4)[C@@H](O)[C@H]3O)ccc12 7.00

Give pIC50 (HCoV-NL63 nsp14 (Human coronavirus NL63)) of the following compound: CCc1cn([C@@H]2O[C@H](CSc3nc4ccccc4s3)[C@@H](O)[C@H]2O)c2ncnc(N)c12 7.28

Notebook: pull reported pIC50 for HCoV-NL63 nsp14 (Human coronavirus NL63), entry Nc1ncnn2c([C@@H]3O[C@H](CCc4nc5ccccc5s4)[C@@H](O)[C@H]3O)ccc12 6.12

Given the entry Nc1ncnc2c1ncn2[C@@H]1C[C@H](CSc2nc3ccccc3s2)[C@@H](O)[C@H]1O , what pIC50 was observed with HCoV-NL63 nsp14 (Human coronavirus NL63)? 8.10

Taken from paper doi:10.1101/2025.09.30.679521v1.
